Attribute: melting point
value-type: melting point

molecular_string=CCCCCCCCCCCCCCC(=O)C(=O)N[C@H](C(=O)NCC(=O)O)C(C)C value_type="melting point" reported_value="87 to 89 °C"
molecular_string=CCCCCCCCCCCCCCC(=O)C(=O)N[C@H](C(=O)NCC(=O)OC)C(C)C value_type="melting point" reported_value="118 to 119 °C"
molecular_string=CCCCCCCCCCCCCCC(=O)C(=O)N[C@@H](CCCC)COCC(=O)OCC value_type="melting point" reported_value="41 to 43 °C"
molecular_string=CCCCCCCCCCCCCCC(=O)C(=O)N[C@H](C(=O)NCC(=O)OC(C)(C)C)C(C)C value_type="melting point" reported_value="58 to 61 °C"

* * *

Target: UniProt P47712
Sequence (P47712 whole entry): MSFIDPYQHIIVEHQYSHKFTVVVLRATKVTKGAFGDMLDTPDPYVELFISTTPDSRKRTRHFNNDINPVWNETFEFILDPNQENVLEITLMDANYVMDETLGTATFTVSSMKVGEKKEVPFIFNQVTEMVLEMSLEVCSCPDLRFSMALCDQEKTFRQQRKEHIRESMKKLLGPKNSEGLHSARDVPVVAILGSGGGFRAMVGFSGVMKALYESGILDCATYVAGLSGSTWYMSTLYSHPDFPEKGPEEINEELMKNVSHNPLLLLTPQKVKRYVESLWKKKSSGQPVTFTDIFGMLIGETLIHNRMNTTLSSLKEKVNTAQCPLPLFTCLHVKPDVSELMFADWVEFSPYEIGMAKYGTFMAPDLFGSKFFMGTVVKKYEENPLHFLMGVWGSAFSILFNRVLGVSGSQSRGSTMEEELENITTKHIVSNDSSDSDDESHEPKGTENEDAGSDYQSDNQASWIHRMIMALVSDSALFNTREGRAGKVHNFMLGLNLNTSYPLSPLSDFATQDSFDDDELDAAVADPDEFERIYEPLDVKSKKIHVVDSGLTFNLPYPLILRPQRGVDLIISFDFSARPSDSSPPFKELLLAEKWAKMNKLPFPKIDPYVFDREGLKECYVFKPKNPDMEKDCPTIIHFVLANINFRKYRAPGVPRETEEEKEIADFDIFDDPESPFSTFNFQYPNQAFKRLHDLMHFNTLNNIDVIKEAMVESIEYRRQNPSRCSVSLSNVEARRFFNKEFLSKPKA
Assay: In vitro PLA2 mixed micellar assay (modified Dole assay), GIVA cPLA2
Assay type: biochemical
Details: mixed micelles; mole fraction of inhibitor in total substrate interface required to inhibit the enzyme by 50%
Procedure: All the inhibitors synthesized in this work were tested for inhibition of GIVA cPLA2, GVIA iPLA2 and GV sPLA2 using mixed micellar assays. Details for the assays have been published previously. […] Initially, the percent inhibition of each PLA2 at 0.091 mole fraction of inhibitor was determined. […] If the percent inhibition was greater than 90%, then its XI(50) was determined by plotting percent inhibition vs. inhibitor molar fraction (7 points; typically 0.005 to 0.091 mole fraction). […]
value-type: GIVA cPLA2 X1(50) (mole fraction)

compound="CCCCCCCCCCCCCCC(=O)C(=O)N[C@@H](CCCC)C(=O)NCC(=O)OC [Compound 4a]" value_type="GIVA cPLA2 X1(50)" units_label="mole fraction" reported_value=0.021
compound="CCCCCCCCCCCCCCC(=O)C(=O)N[C@H](C(=O)NCC(=O)O)C(C)C [Compound 9b]" value_type="GIVA cPLA2 X1(50)" units_label="mole fraction" reported_value=0.061
compound="CCCCCCCCCCCCCCC(=O)C(=O)N[C@H](C(=O)NCC(=O)OC(C)(C)C)C(C)C [Compound 8b]" value_type="GIVA cPLA2 X1(50)" units_label="mole fraction" reported_value=0.028
compound="CCCCCCCCCCCCCCC(=O)C(=O)N[C@@H](CCCC)C(=O)NCC(=O)O [Compound 9a]" value_type="GIVA cPLA2 X1(50)" units_label="mole fraction" reported_value=0.035

* * *

System: RAW 264.7 macrophages
Assay: Inhibition of Kdo2-Lipid A stimulated arachidonic acid release
Type: cell-based
Details: Mus musculus, RAW264.7; 25 μM inhibitor preincubated, Kdo2-Lipid A stimulation, RAW 264.7 macrophages; read-out: AA Release Inhibition (%)
Kind request: treat 60% as inclusive, so inhibition at 25 µM at 60% or higher is 1, anything lower is 0.

molecular_string=CCCCCCCCCCCCCCC(=O)C(=O)N[C@@H](CCCC)COCC(=O)O answer_label=1
molecular_string=CCC(=O)C(=O)NCCCC(=O)O answer_label=0
molecular_string=CCCCCCCCCCCCCCC(=O)C(=O)N[C@H](C(=O)NCC(=O)OC(C)(C)C)C(C)C answer_label=0
molecular_string=CCC[C@@H](/C=C/C=C/C(=O)O)NC(=O)C(=O)CC answer_label=0
molecular_string=CCC(=O)C(=O)N[C@H](CCC(=O)O)CC(C)C answer_label=1
molecular_string=CCC[C@@H](/C=C/C(=O)O)NC(=O)C(=O)CC answer_label=1
molecular_string=CCC[C@@H](CCC(=O)O)NC(=O)C(=O)CC answer_label=1
